# procedure details: clinical
# Set-up: species or system human
# test settings: human, in vivo, iv, 300 mg, Vz
Positions of bridges follow the written chain, without caps; N, C: chain ends. Non-standard residues stand in square brackets, D forms with d. Residues, ends and D or L forms follow the SMILES beside them. *: point of attachment. X1 = NC[C@@H](CC(=O)*)c1cccc(Cl)c1; Dab = NCC[C@H](N)C(=O)O; Dap = NC[C@H](N)C(=O)O
experimental readout: Vd
Form field: result (number plus unit)

q: // query Vd value for entry CC(C)C[C@@H]1NC(=O)[C@@H](Cc2ccccc2)NC(=O)[C@H](CCN)NC(=O)[C@@H](NC(=O)[C@H](CN)NC(=O)[C@@H](NC(=O)C[C@H](CN)c2cccc(Cl)c2)[C@@H](C)O)CCNC(=O)[C@H]([C@@H](C)O)NC(=O)[C@H](CCN)NC(=O)[C@H](CCN)NC1=O [SPR206] (X1-T[Dap][Dab][Dab][dF]L[Dab][Dab]T; lactam 3-C (inferred))
a: 25.4 L

This collection of values is drawn from paper PMC8448162.
